Data origin, for the record: patent US5756423A

# Tested on: velvetleaf (Abutilon theophrasti) (ABUTH)
# Procedure text: post-emergent herbicidal test, velvetleaf
# Format: in vivo
# Experimental setup: Abutilon theophrasti, post-emergence, post-emergent, 1.0 kg/ha (*), 17-21 days after application; read-out: ABUTH percent control
Reported pest or weed control at 1000 g/ha by item:

[
  {
    "Compound": "C=CCN(C)CC(P(=O)(O)O)P(=O)(O)O",
    "Unit spec": "%",
    "pest or weed control at 1000 g/ha": 85
  },
  {
    "Compound": "CCCCNCC(P(=O)(O)O)P(=O)(O)O",
    "Unit spec": "%",
    "pest or weed control at 1000 g/ha": 20
  },
  {
    "Compound": "CC(NCC(P(=O)(O)O)P(=O)(O)O)c1ccc(F)cc1 (centres unmarked)",
    "Unit spec": "%",
    "pest or weed control at 1000 g/ha": 60
  },
  {
    "Compound": "CCC(C)NCC(P(=O)(O)O)P(=O)(O)O (centres unmarked)",
    "Unit spec": "%",
    "pest or weed control at 1000 g/ha": 60
  },
  {
    "Compound": "CCCN(CC)CC(P(=O)(O)O)P(=O)(O)O",
    "Unit spec": "%",
    "pest or weed control at 1000 g/ha": 70
  },
  {
    "Compound": "CCCN(CC(C)C)CC(P(=O)(O)O)P(=O)(O)O",
    "Unit spec": "%",
    "pest or weed control at 1000 g/ha": 70
  },
  {
    "Compound": "O=P(O)(O)C(CN1CC=CCC1)P(=O)(O)O",
    "Unit spec": "%",
    "pest or weed control at 1000 g/ha": 90
  },
  {
    "Compound": "CCCCCCNCC(P(=O)(O)O)P(=O)(O)O",
    "Unit spec": "%",
    "pest or weed control at 1000 g/ha": 0
  },
  {
    "Compound": "C=C(C)CNCC(P(=O)(O)O)P(=O)(O)O",
    "Unit spec": "%",
    "pest or weed control at 1000 g/ha": 60
  },
  {
    "Compound": "CC1CCCN1CC(P(=O)(O)O)P(=O)(O)O (centres unmarked)",
    "Unit spec": "%",
    "pest or weed control at 1000 g/ha": 30
  },
  {
    "Compound": "O=P(O)(O)C(CNCCc1ccccc1)P(=O)(O)O",
    "Unit spec": "%",
    "pest or weed control at 1000 g/ha": 5
  }
]
